Assay: Pharmacokinetic evaluation in mice
Type: in vivo
Settings: mouse, plasma; ICR mice, IV 1 mg/kg; read-out: MRT(0-t)
Could you please report measured MRT last for the items listed next?
Enter your answer as a number in h; do not include the unit.

Using the record for CC(=O)N1CC2(C1)CN(c1cccc(-c3ccc4nc(-c5cccnc5N)n(-c5ccc(C6(N)CCC6)cc5)c4n3)c1F)C2 , report its MRT last.
1.49

Give the measured MRT last of CN1CC2(CCN(c3cccc(-c4ccc5nc(-c6cccnc6N)n(-c6ccc(C7(N)CCC7)cc6)c5n4)c3F)CC2)CC1=O .
1.18

Recorded MRT last for CC(=O)N1CC2(CCN(c3cccc(-c4ccc5nc(-c6cccnc6N)n(-c6ccc(C7(N)CCC7)cc6)c5n4)c3F)CC2)C1 , please?
0.817

Sample Nc1ncccc1-c1nc2ccc(-c3cccc(N4CCC(N5CCCC5=O)CC4)c3F)nc2n1-c1ccc(C2(N)CCC2)cc1 — what was its MRT last?
1.04

====

Assay: Pharmacokinetic evaluation in mice
Assay type: in vivo
Conditions: mouse, plasma, po; ICR mice, IG 10 mg/kg vs IV 1 mg/kg; read-out: Absolute bioavailability F %
metric name: bioavailability (%)
Give the number; % is assumed, so skip it.

Quick check: bioavailability of CC(=O)N1CC2(C1)CN(c1cccc(-c3ccc4nc(-c5cccnc5N)n(-c5ccc(C6(N)CCC6)cc5)c4n3)c1F)C2 [Compound 28] ?
35.4

Tell me the measured bioavailability of Nc1ncccc1-c1nc2ccc(-c3cccc(N4CCC(N5CCCC5=O)CC4)c3F)nc2n1-c1ccc(C2(N)CCC2)cc1 [Compound 30] , please.
58.2

Which bioavailability value is on record for CC(=O)N1CC2(CCN(c3cccc(-c4ccc5nc(-c6cccnc6N)n(-c6ccc(C7(N)CCC7)cc6)c5n4)c3F)CC2)C1 [Compound 44] ?
51.7

Need bioavailability of CN1CC2(CCN(c3cccc(-c4ccc5nc(-c6cccnc6N)n(-c6ccc(C7(N)CCC7)cc6)c5n4)c3F)CC2)CC1=O [Compound 45] , thanks.
34.3

====

For each record, write down the corresponding Tmax.
Assay: Pharmacokinetic evaluation in mice
Format: in vivo
Details: mouse, plasma, po; ICR mice, IG 10 mg/kg
Only the number, expressed in h, is required.

// query Tmax value for entry CC(=O)N1CC2(CCN(c3cccc(-c4ccc5nc(-c6cccnc6N)n(-c6ccc(C7(N)CCC7)cc6)c5n4)c3F)CC2)C1
2

I have this compound here, CN1CC2(CCN(c3cccc(-c4ccc5nc(-c6cccnc6N)n(-c6ccc(C7(N)CCC7)cc6)c5n4)c3F)CC2)CC1=O , and I need its recorded Tmax.
0.25

Query (compound): CC(=O)N1CC2(C1)CN(c1cccc(-c3ccc4nc(-c5cccnc5N)n(-c5ccc(C6(N)CCC6)cc5)c4n3)c1F)C2 ; field requested: Tmax
2

Quick one: Tmax of Nc1ncccc1-c1nc2ccc(-c3cccc(N4CCC(N5CCCC5=O)CC4)c3F)nc2n1-c1ccc(C2(N)CCC2)cc1 ?
2

====

Assay: Pharmacokinetic evaluation in rats
Assay type: in vivo
Conditions: rat, plasma, po; SD rats, IG 10 mg/kg
metric name: AUC(0-inf) (µg·h/mL)
Field format: number, assumed µg·h/mL, no unit text.

Value lookup for AUC(0-inf); key = CC(=O)N1CC2(C1)CN(c1cccc(-c3ccc4nc(-c5cccnc5N)n(-c5ccc(C6(N)CCC6)cc5)c4n3)c1F)C2
0.372

If you can, please state the reported AUC(0-inf) value of Nc1ncccc1-c1nc2ccc(-c3cccc(N4CCC(N5CCCC5=O)CC4)c3F)nc2n1-c1ccc(C2(N)CCC2)cc1 .
0.383

====

Assay: Pharmacokinetic evaluation in rats
Assay type: in vivo
Conditions: rat, plasma, po; SD rats, IG 10 mg/kg
metric name: Tmax (h)
Unit h implied. Number only.

# get_value(readout='Tmax', item= CC(=O)N1CC2(C1)CN(c1cccc(-c3ccc4nc(-c5cccnc5N)n(-c5ccc(C6(N)CCC6)cc5)c4n3)c1F)C2 [Compound 28] )
4.67

Report Tmax for Nc1ncccc1-c1nc2ccc(-c3cccc(N4CCC(N5CCCC5=O)CC4)c3F)nc2n1-c1ccc(C2(N)CCC2)cc1 [Compound 30] please.
4.67

====

Experiment: Pharmacokinetic evaluation in mice
Assay type: in vivo
Conditions: mouse, plasma; ICR mice, IV 1 mg/kg
Would you kindly list AUC(0-t) for each of these compounds?
Answer with the number, then the unit.

Which AUC(0-t) reading was recorded for the compound CC(=O)N1CC2(C1)CN(c1cccc(-c3ccc4nc(-c5cccnc5N)n(-c5ccc(C6(N)CCC6)cc5)c4n3)c1F)C2 [Compound 28] ?
246 ng·h/mL

Give the measured AUC(0-t) of Nc1ncccc1-c1nc2ccc(-c3cccc(N4CCC(N5CCCC5=O)CC4)c3F)nc2n1-c1ccc(C2(N)CCC2)cc1 [Compound 30] .
476 ng·h/mL

What value of measured AUC(0-t) is listed for CN1CC2(CCN(c3cccc(-c4ccc5nc(-c6cccnc6N)n(-c6ccc(C7(N)CCC7)cc6)c5n4)c3F)CC2)CC1=O [Compound 45] ?
4240 ng·h/mL

Query (compound): CC(=O)N1CC2(CCN(c3cccc(-c4ccc5nc(-c6cccnc6N)n(-c6ccc(C7(N)CCC7)cc6)c5n4)c3F)CC2)C1 [Compound 44] ; field requested: AUC(0-t)
4840 ng·h/mL

====

Test: Pharmacokinetic evaluation in mice
Assay type: in vivo
Settings: ICR mice, IG 10 mg/kg
Method: ICR mice, weight 18-22 g, after adaption for 3-5 days, were randomly divided into 4 groups of 9 mice, each group was intragastrically (IG) administered with compound 28 or compound 30 at a dose of 10 mg/kg, or intravenously (IV) administered with compound 28 or compound 30 at a dose of 1 mg/kg. […] Oral and intravenous exposure of the compound of the present application was evaluated by in vivo pharmacokinetic experiment in mice.
Provide the reported t1/2z of each item.
Reply numerically in h, unit not repeated.

Could you tell me which t1/2z is on file for CC(=O)N1CC2(CCN(c3cccc(-c4ccc5nc(-c6cccnc6N)n(-c6ccc(C7(N)CCC7)cc6)c5n4)c3F)CC2)C1 [Compound 44] ?
3.61

Looking for the measured t1/2z of CC(=O)N1CC2(C1)CN(c1cccc(-c3ccc4nc(-c5cccnc5N)n(-c5ccc(C6(N)CCC6)cc5)c4n3)c1F)C2 [Compound 28] , can you help?
5.31

Returns the measured t1/2z for the input molecule. Input: CN1CC2(CCN(c3cccc(-c4ccc5nc(-c6cccnc6N)n(-c6ccc(C7(N)CCC7)cc6)c5n4)c3F)CC2)CC1=O [Compound 45]
2.06

Need t1/2z of Nc1ncccc1-c1nc2ccc(-c3cccc(N4CCC(N5CCCC5=O)CC4)c3F)nc2n1-c1ccc(C2(N)CCC2)cc1 [Compound 30] , thanks.
6.58

====

So I've got a bunch of molecules here, and I need their Cl values.
Assay: Pharmacokinetic evaluation in mice
Type: in vivo
Design: unit not given here
Details: ICR mice, IV 1 mg/kg

Please report the recorded Cl for CN1CC2(CCN(c3cccc(-c4ccc5nc(-c6cccnc6N)n(-c6ccc(C7(N)CCC7)cc6)c5n4)c3F)CC2)CC1=O [Compound 45] .
0.23

Can you share its Cl? I mean this molecule: CC(=O)N1CC2(CCN(c3cccc(-c4ccc5nc(-c6cccnc6N)n(-c6ccc(C7(N)CCC7)cc6)c5n4)c3F)CC2)C1 [Compound 44]
0.206

Form field: reported Cl of Nc1ncccc1-c1nc2ccc(-c3cccc(N4CCC(N5CCCC5=O)CC4)c3F)nc2n1-c1ccc(C2(N)CCC2)cc1 [Compound 30]
2.08

// query Cl value for entry CC(=O)N1CC2(C1)CN(c1cccc(-c3ccc4nc(-c5cccnc5N)n(-c5ccc(C6(N)CCC6)cc5)c4n3)c1F)C2 [Compound 28]
3.95

====

I'd be grateful if you could share measured t1/2z for these entries.
Assay: Pharmacokinetic evaluation in mice
Type: in vivo
Settings: ICR mice, IV 1 mg/kg
Give the value in h but do not write h after it.

Quick one: t1/2z for CN1CC2(CCN(c3cccc(-c4ccc5nc(-c6cccnc6N)n(-c6ccc(C7(N)CCC7)cc6)c5n4)c3F)CC2)CC1=O ?
1.159

Param item = CC(=O)N1CC2(CCN(c3cccc(-c4ccc5nc(-c6cccnc6N)n(-c6ccc(C7(N)CCC7)cc6)c5n4)c3F)CC2)C1 ; retrieve measured t1/2z.
1.34

Recorded t1/2z of Nc1ncccc1-c1nc2ccc(-c3cccc(N4CCC(N5CCCC5=O)CC4)c3F)nc2n1-c1ccc(C2(N)CCC2)cc1 , please.
1.48

Given the entry CC(=O)N1CC2(C1)CN(c1cccc(-c3ccc4nc(-c5cccnc5N)n(-c5ccc(C6(N)CCC6)cc5)c4n3)c1F)C2 , report its measured t1/2z.
1.74

====

Target: AKT1 (S473) (Homo sapiens, UniProt P31749)
Construct: endogenous in cells
Sequence (P31749 whole entry): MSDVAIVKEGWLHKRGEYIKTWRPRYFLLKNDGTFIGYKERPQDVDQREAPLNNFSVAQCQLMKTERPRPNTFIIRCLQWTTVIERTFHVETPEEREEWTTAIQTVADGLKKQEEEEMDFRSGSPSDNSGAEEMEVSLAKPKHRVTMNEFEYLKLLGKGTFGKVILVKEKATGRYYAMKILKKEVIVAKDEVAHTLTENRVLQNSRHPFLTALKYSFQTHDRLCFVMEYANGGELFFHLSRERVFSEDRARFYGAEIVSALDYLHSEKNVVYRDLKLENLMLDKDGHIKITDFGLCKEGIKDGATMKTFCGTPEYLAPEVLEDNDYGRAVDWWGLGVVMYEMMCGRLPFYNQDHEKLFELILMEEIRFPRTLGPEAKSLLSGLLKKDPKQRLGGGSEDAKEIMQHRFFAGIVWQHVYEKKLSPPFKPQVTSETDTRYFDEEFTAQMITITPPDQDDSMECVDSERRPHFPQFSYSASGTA
Assay: Inhibitory effect on phosphorylation of LNcap cells AKT1 (S473)
Conditions: 1 h incubation
Consider the following compounds; for each one, report its IC50.
I only need the number, in nM, no unit after it.

Give its IC50 value. Item: Nc1ncccc1-c1nc2ccc(-c3cccc(N4CCN(C5COC5)CC4)c3)nc2n1-c1ccc(C2(N)CCC2)cc1 [Compound 11]
19

Value lookup for IC50; key = CC1COC(=O)N1C1CCN(c2cccc(-c3ccc4nc(-c5cccnc5N)n(-c5ccc(C6(N)CCC6)cc5)c4n3)c2)CC1 (centres unmarked) [Compound 39]
42

May I ask what IC50 has been recorded for CC(=O)N1CCC2(C1)CN(c1cccc(-c3ccc4nc(-c5cccnc5N)n(-c5ccc(C6(N)CCC6)cc5)c4n3)c1F)C2 [Compound 37] ?
11

Name the recorded IC50 for C=CC(=O)NCc1cccc(-c2ccc3nc(-c4cccnc4N)n(-c4ccc(C5(N)CCC5)cc4)c3n2)c1 [Compound 2] .
17

So what does the record say about IC50 for [2H]C1([2H])CC(N2CCCC2=O)CC([2H])([2H])N1c1cccc(-c2ccc3nc(-c4cccnc4N)n(-c4ccc(C5(N)CCC5)cc4)c3n2)c1F [Compound 38] ?
13

Which value of IC50 has been reported for Nc1ncccc1-c1nc2ccc(-c3cccc(N4CCC(N5CCCCS5(=O)=O)CC4)c3F)nc2n1-c1ccc(C2(N)CCC2)cc1 [Compound 41] in the records?
41

Item CN1CC2(CC1=O)CN(c1cccc(-c3ccc4nc(-c5cccnc5N)n(-c5ccc(C6(N)CCC6)cc5)c4n3)c1)C2 [Compound 33] has what recorded IC50?
17

Which value of IC50 has been reported for CC(=O)N1CC2(C1)CN(c1cccc(-c3ccc4nc(-c5cccnc5N)n(-c5ccc(C6(N)CCC6)cc5)c4n3)c1)C2 [Compound 16] in the records?
19

Given CC#CC(=O)N1CCCC1c1cccc(-c2ccc3nc(-c4cccnc4N)n(-c4ccc(C5(N)CCC5)cc4)c3n2)c1 (centres unmarked) [Compound 1] , state its recorded IC50.
34

For the compound shown here, CC(=O)N1CCC2(CC1)CN(c1cccc(-c3ccc4nc(-c5cccnc5N)n(-c5ccc(C6(N)CCC6)cc5)c4n3)c1F)C2 [Compound 35] , give the reported IC50.
12

Could you tell me which IC50 is on file for CN1CC2(CCN(c3cccc(-c4ccc5nc(-c6cccnc6N)n(-c6ccc(C7(N)CCC7)cc6)c5n4)c3F)CC2)CC1=O [Compound 45] ?
7.7

Which IC50 is listed for Nc1ncccc1-c1nc2ccc(-c3cccc(N4CCN5C(=O)CCC5C4)c3)nc2n1-c1ccc(C2(N)CCC2)cc1 (centres unmarked) [Compound 9] ?
16

Look up IC50: Nc1ncccc1-c1nc2ccc(-c3cccc(N4CC5(CCOCC5)C4)c3)nc2n1-c1ccc(C2(N)CCC2)cc1 [Compound 6]
54

Could you share which IC50 value was measured for CS(=O)(=O)N1CC2(CN(c3cccc(-c4ccc5nc(-c6cccnc6N)n(-c6ccc(C7(N)CCC7)cc6)c5n4)c3)C2)C1 [Compound 17] ?
17

Would you mind telling me what IC50 value was observed for Nc1ncccc1-c1nc2ccc(-c3cccc(N4CCC(N5CCCC5=O)CC4)c3F)nc2n1-c1ccc(C2(N)CCC2)cc1 [Compound 30] ?
22

IC50 lookup needed for CC(=O)N1CC2(CCN(c3cccc(-c4ccc5nc(-c6cccnc6N)n(-c6ccc(C7(N)CCC7)cc6)c5n4)c3F)CC2)C1 [Compound 44] , thanks.
12

Requested field: IC50. Item: CC1CN(C2COC2)CCN1c1cccc(-c2ccc3nc(-c4cccnc4N)n(-c4ccc(C5(N)CCC5)cc4)c3n2)c1 (centres unmarked) [Compound 10]
47

So what does the record say about IC50 for CN(C1CCN(c2cccc(-c3ccc4nc(-c5cccnc5N)n(-c5ccc(C6(N)CCC6)cc5)c4n3)c2F)CC1)S(C)(=O)=O [Compound 32] ?
11

What value of IC50 has been reported for the following compound? CC(=O)N1CC2(C1)CN(c1cccc(-c3ccc4nc(-c5cccnc5N)n(-c5ccc(C6(N)CCC6)cc5)c4n3)c1F)C2 [Compound 28]
28

Look up IC50 for this compound: Nc1ncccc1-c1nc2ccc(-c3cccc(N4CCC(N5CCCC5=O)CC4)c3)nc2n1-c1ccc(C2(N)CCC2)cc1 [Compound 21]
23

Need IC50 of Nc1ncccc1-c1nc2ccc(-c3cccc(N4CCC(N5CCC(F)(F)C5=O)CC4)c3)nc2n1-c1ccc(C2(N)CCC2)cc1 [Compound 34] , thanks.
25

Find the recorded IC50 belonging to [2H]C([2H])([2H])N(C(C)=O)C1CCN(c2cccc(-c3ccc4nc(-c5cccnc5N)n(-c5ccc(C6(N)CCC6)cc5)c4n3)c2F)CC1 [Compound 55] and report it.
7.1

What measured IC50 goes with C=CC(=O)Nc1ccc(-c2ccc3nc(-c4cccnc4N)n(-c4ccc(C5(N)CCC5)cc4)c3n2)cc1 [Compound 3] ?
20
